# Experiment notes: Stability in Ile-de-France ewe serum assessed as intact compound level at 50 uM incubated for 6 hrs by HPLC method
# Type: ADME, cell-free, Ovis aries
# Reported conditions: female, sheep, read-out: Stability
Measured property: remaining at 6 h, 50 µM (%)
Number in %, nothing else.

## Task Record request: remaining at 6 h, 50 µM value, item "Ac-YNWNSFGLRY-NH2"
## Result 2.6

----------
# Target system: Neuropeptide FF receptor 1 (Homo sapiens)
# Sequence (Q9GZQ6 whole entry): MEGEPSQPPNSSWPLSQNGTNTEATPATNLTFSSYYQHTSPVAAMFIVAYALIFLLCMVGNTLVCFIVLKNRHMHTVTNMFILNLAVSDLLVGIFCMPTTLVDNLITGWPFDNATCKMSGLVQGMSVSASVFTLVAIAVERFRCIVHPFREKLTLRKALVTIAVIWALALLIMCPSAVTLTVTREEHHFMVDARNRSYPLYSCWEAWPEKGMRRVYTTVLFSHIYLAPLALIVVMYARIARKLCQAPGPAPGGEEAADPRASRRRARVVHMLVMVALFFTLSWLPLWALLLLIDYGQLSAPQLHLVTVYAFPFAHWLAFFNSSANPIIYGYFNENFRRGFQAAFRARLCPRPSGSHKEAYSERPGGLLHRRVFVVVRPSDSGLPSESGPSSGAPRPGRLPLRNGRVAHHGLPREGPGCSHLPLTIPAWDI
# Experiment notes: Agonist activity at human NPFF1R expressed in CHO cells assessed as effect on forskolin-induced cAMP accumulation after 15 mins by luminescence based assay
# Type: functional, cell-based
Measured property: EC50

## Task Record request: EC50 value, item "Ac-YNWNSFGLRY-NH2"
## Result > 5 µM
